Catalogue of molecules with associated MTD
# assay notes: Maximum tolerated dose by dose escalation
# Format: in vivo, miniature pigs
# assay setup: female, pig, in vivo; miniature pigs, dose escalation; read-out: MTD (females)
// note: answer is a bare numeric in mg/kg

- molecule: "CN1CCN(C2=Nc3cc(Cl)ccc3Nc3ccccc32)CC1 [Clozapine, clozapine, reference compound]"
  unit label: "mg/kg"
  obs value: 4.5

Now consider a different molecule.
Value of MTD reported for the molecule CN1CCN(C2=Nc3cc(Cl)c(F)cc3Nc3ccccc32)CC1 [Fluoroclozapine] is 6
